Target: Human immunodeficiency virus type 1 reverse transcriptase (Human immunodeficiency virus 1, UniProt Q72547)
Assay: Concentration required to inhibit HIV-1 reverse transcriptase activity (wild-type) enzyme

compound	unit label	EC50
Cc1ncc([N+](=O)[O-])n1CCOC(c1ccccc1)c1cccs1 (stereo unspecified)	nM	30

* * *

Target: Human immunodeficiency virus type 1 reverse transcriptase (Human immunodeficiency virus 1)
Test: Concentration required to inhibit HIV-1 reverse transcriptase activity (wild-type) by 50%
Assay type: functional

smiles representation	EC50
Cc1ncc([N+](=O)[O-])n1CCNC(c1ccccc1)c1ccccc1	8 µM

* * *

System: MT4
Assay: Concentration required to protect MT-4 cells from HIV-1 induced cytopathogenicity by 50%; determined by MTT method
Type: functional, cell-based
Conditions: Homo sapiens
Binarize EC50 at 2 µM; below is rule met, at or above is rule not met.

compound	target under test	assigned category
Cc1ncc([N+](=O)[O-])n1CCOC(c1ccccc1)c1cccs1 (stereo unspecified)	MT4	rule met
Cc1ncc([N+](=O)[O-])n1CCOC(c1ccccc1)c1ccc(Cl)s1 (stereo unspecified)	MT4	rule met
Cc1ncc([N+](=O)[O-])n1CCOC(c1cccs1)c1cccc(F)c1F (stereo unspecified)	MT4	rule met
Cc1ncc([N+](=O)[O-])n1CCN(Cc1ccccc1)C1CCCCC1	MT4	rule not met
Cc1ncc([N+](=O)[O-])n1CCOC(c1ccc(Cl)cc1)c1cccs1 (stereo unspecified)	MT4	rule not met
Cc1ncc([N+](=O)[O-])n1CCNC(c1ccccc1)c1ccccc1	MT4	rule not met
O=[N+]([O-])c1cncn1CCOC(c1ccccc1)c1ccccc1	MT4	rule not met
Cc1ncc([N+](=O)[O-])n1CCNC(c1ccccc1)c1ccc(F)cc1 (stereo unspecified)	MT4	rule not met
Cc1nc([N+](=O)[O-])cn1CCOCc1ccccc1	MT4	rule not met
Cc1ncc([N+](=O)[O-])n1CCNC(c1ccccc1)c1ccccc1F (stereo unspecified)	MT4	rule not met
Cc1ncc([N+](=O)[O-])n1CCOC(c1ccc(F)cc1)c1cccs1 (stereo unspecified)	MT4	rule not met
Cc1ncc([N+](=O)[O-])n1CCOC(c1cccc(F)c1)c1cccs1 (stereo unspecified)	MT4	rule met
Cc1ncc([N+](=O)[O-])n1CCNC(c1ccccc1)c1cccc(Cl)c1 (stereo unspecified)	MT4	rule not met
Cc1ncc([N+](=O)[O-])n1CCOC(c1cccc(Cl)c1)c1cccs1 (stereo unspecified)	MT4	rule met
Cc1nc([N+](=O)[O-])cn1CCOC(c1ccccc1)c1ccccc1	MT4	rule not met
Cc1ncc([N+](=O)[O-])n1CCSC(c1ccccc1)c1ccccc1	MT4	rule met
